testName: HepG2 cell viability effects, profiling panel, calcein-AM fluorescence, 48 h, basal (AID 1164); further: test concentration not given here
conditionLabel: higher = more signal

compound | z-score
COC(=O)[C@H](Cc1ccccc1)N1CC(/C=C/C2CC2)=C[C@H]1[C@H](O)Cc1ccccc1 | -0.551
CC(C)N1C(=O)c2ccccc2[C@@H](C(=O)NC2CC2)[C@@H]1c1ccc(CO)cc1 | 0.476
C=CCC(OC(C)=O)[C@@H]1[C@@H](N(Cc2ccc(-c3cccc(C(F)(F)F)c3)o2)C(=O)c2ccc(-c3ccccc3)cc2)c2cc(OCCCO)ccc2N1C(=O)c1ccc2ccccc2n1 (some centres not stated) | -0.474
COCCOC(=O)N1C(=O)[C@@]2(c3cc(C#CCCO)ccc31)[C@H](c1ccccc1OCCO)N1[C@H](c3ccccc3)[C@H](c3ccccc3)OC(=O)[C@H]1[C@@H]2C(=O)Nc1nc2ccccc2s1 | 0.169
O=C1NC(=O)C2C1C=CC(C(O)CCc1ccccc1)N2Nc1ccc(Cl)cc1Cl (configuration not stated) | -0.588
COCCCNC(=O)[C@]1(CCS(=O)(=O)c2ccccc2)N=C(c2ccc(OCCCO)cc2)O[C@@H]1c1ccccc1N=[N+]=[N-] | 0.683
CC(C)(C)N1CC=CC23O[C@@H]4C=CCOC(=O)[C@@H]4[C@H]2C(=O)N(CCCCCCO)[C@@H]3C1=O (some centres not stated) | -0.165

----------
testName: small-molecule microarray binders of probe aCHRDL2, primary screen, biochemical, biotinylated probe, 635/667 nm fluorescence (AID 1100)
conditionLabel: higher = more signal
// reported composite z-score per item

compound | composite z-score
COc1ccc([Si](C)(C)[C@@H]2[C@@H](CC(=O)N(CCO)Cc3ccccc3)O[C@]3(C(=O)N(Cc4cccc(N5C(=O)c6cccc7cccc5c67)c4)c4ccccc43)[C@H]2C)cc1 | 0.246
C=CCNC(=O)[C@H]1[C@@H]2C(=O)O[C@@H](c3ccccc3)[C@@H](c3ccccc3)N2[C@@H](c2ccc(O)cc2)[C@]12C(=O)N(C(=O)OCCOC)c1ccccc12 | -0.0623
COC(=O)[C@@]1(Cc2ccc(OC)cc2)[C@H]2c3cc(C(=O)N(C)C)n(C[C@H](O)CO)c3C[C@H]2CN1C(=O)c1ccccc1 | 1.62
O=C1C[C@@](C(=O)NCCN2CCOCC2)(c2ccc([N+](=O)[O-])cc2)[C@@H](c2ccc(CO)cc2I)N1C1CCCCC1 | -0.0907
O=C1C2C=CC(C(O)c3ccc(F)cc3)N(n3cnnc3)C2C(=O)N1Cc1ccccc1 (stereo unspecified) | 0.384
CCOC(=O)c1ccc(NC(=O)O[C@H]2[C@H](OC(=O)Nc3ccc4c(c3)OCO4)[C@@H](OC(=O)Nc3ccc4c(c3)OCO4)[C@@H](OC)O[C@@H]2CO)cc1 | 0.157

----------
measuredTarget: E3 ubiquitin-protein ligase XIAP (Homo sapiens)
testName: XIAP binders, primary screen, biophysical, small-molecule microarray, fluorescence 635 nm (AID 1181);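 further: score merges 667 nm emission and signal to noise over triplicate slides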
conditionLabel: small-molecule microarray binding, higher = more signal
propertyMeasured: composite z-score

smiles | propertyMeasured | observedResult
CCOC(=O)C[C@H]1[C@H](OC(=O)c2cc3ccccc3oc2=O)[C@@H](NC(=O)c2ccc(-c3ccccc3)cc2)c2cc(OCCCO)ccc2N1C(=O)c1ccc2ccccc2n1 | composite z-score | 0.023
CN(C)C(=O)[C@@]1(Cc2ccccc2CN=[N+]=[N-])N=C(c2ccc(OCCCO)cc2)O[C@H]1c1ccccc1CN=[N+]=[N-] | composite z-score | 0.172
COC(=O)c1cn(C[C@@H](Cc2ccccc2)NC(=O)N[C@H](CO)CCc2oc(C(C)=O)c(C(=O)OC)c2C(=O)OC)nn1 | composite z-score | -0.02
